Target: Proteasome Macropain subunit MB1 (Homo sapiens) (UniProt P28074)
Sequence (P28074 whole entry): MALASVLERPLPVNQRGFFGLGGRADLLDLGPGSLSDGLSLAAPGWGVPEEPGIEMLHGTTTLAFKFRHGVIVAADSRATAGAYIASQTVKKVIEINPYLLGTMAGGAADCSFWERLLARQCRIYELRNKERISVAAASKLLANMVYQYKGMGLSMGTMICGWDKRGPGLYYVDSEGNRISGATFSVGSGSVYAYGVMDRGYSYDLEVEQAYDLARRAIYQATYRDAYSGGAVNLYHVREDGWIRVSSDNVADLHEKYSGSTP
Test: Inhibition of chymotrypsin-like activity of human 20S proteasome beta 5 subunit assessed as Suc-Leu-Leu-Val-Tyr-AMC substrate hydrolysis at 20 uM after 10 mins by fluorometric analysis
Measured Metric: inhibition
Lab note: write values as number then unit, every time.

Input line: Fill blank: measured inhibition of the compound `CC(C)CCNC(=O)Cn1ccc2c(c1=O)CCCN2` is ____.
Output line: 45%

Input line: Fill blank: measured inhibition of the compound `O=C(Cn1ccccc1=O)NC12CC3CC(CC(C3)C1)C2` is ____.
Output line: 86%

Input line: Fill blank: measured inhibition of the compound `CC(C)CCNC(=O)[C@H](C)n1ccc2ncccc2c1=O` is ____.
Output line: 35%

Input line: Fill blank: measured inhibition of the compound `CC(C)C[C@H](NC(=O)Cn1ccc2ncccc2c1=O)B(O)O` is ____.
Output line: 100%

Input line: Fill blank: measured inhibition of the compound `O=C(Cn1ccc(Nc2ccccc2)cc1=O)Nc1ccccc1C(=O)c1ccccc1` is ____.
Output line: 67%

Input line: Fill blank: measured inhibition of the compound `O=C(Cn1ccccc1=O)Nc1ccccc1C(=O)c1ccccc1` is ____.
Output line: 21%
